Target: HCV NS3/4A 1b protease D168A (Hepatitis C virus genotype 1b, UniProt Q9WMX2, D1194A)
Construct: 10× stocks of NS3/4A protease enzyme from Bioenza (Mountain View, Calif.); purchased Bioenza (Mountain View, Calif.)
Assay: HCV protease FRET assay (IC50_APP), Example 16
Format: biochemical
assay endpoint: IC50

Record request: IC50 value, item "CC(C)(C)OC(=O)N[C@H]1COC(=O)/C=C/C=C\[C@@H]2C[C@@]2(C(=O)NS(=O)(=O)C2CC2)NC(=O)[C@@H]2C[C@@H](OC(=O)N3Cc4cccc(F)c4C3)CN2C1=O" 100 to 1000 nM

What value of measured IC50 is listed for "C=CC(=O)NC[C@@H]1NC(=O)OCC(C)(C)CCCCc2cccc3c2CN(C3)C(=O)O[C@@H]2C[C@@H](C(=O)N[C@]3(C(=O)NS(=O)(=O)C4CC4)C[C@H]3C=C)N(C2)C1=O" ? 10 to 100 nM

Which IC50 reading was recorded for the compound C=C[C@@H]1C[C@]1(NC(=O)[C@@H]1CC(OC(=O)N2Cc3cccc(F)c3C2)CN1C(=O)[C@H](CCC(=O)C#CC(C)(C)C)NC(=O)OC(C)(C)C)C(=O)NS(=O)(=O)C1CC1 (stereo partly drawn) ? < 10 nM

---

Target: HCV NS3/4A 1b protease A156T (Hepatitis C virus genotype 1b, UniProt Q9WMX2, A1182T)
Construct: 10× stocks of NS3/4A protease enzyme from Bioenza (Mountain View, Calif.); purchased Bioenza (Mountain View, Calif.)
Test: HCV protease FRET assay (IC50), Example 15
Assay type: biochemical
Conditions: Inhibition (IC50), HCV A156T, FRET, 30 min pre-incubation at 25° C.
Task for the reader: assign each of the following molecules its reported IC50.

Lab note: need IC50 for C=CC(=O)NCC(=O)N1C[C@H](OC(=O)N2Cc3cccc(F)c3C2)C[C@H]1C(=O)N[C@]1(C(=O)NS(=O)(=O)C2CC2)C[C@H]1C=C [Compound I-6] on HCV NS3/4A 1b protease A156T (Hepatitis C virus genotype 1b, UniProt Q9WMX2, A1182T), anyone have it? < 10 nM

Find IC50 (HCV NS3/4A 1b protease A156T (Hepatitis C virus genotype 1b, UniProt Q9WMX2, A1182T)) for the entry C=CC(=O)NC[C@H](NC(=O)OC(C)(C)C)C(=O)N1C[C@H](OC(=O)N2Cc3cccc(F)c3C2)C[C@H]1C(=O)N[C@]1(C(=O)NS(=O)(=O)C2CC2)C[C@H]1C=C [Compound I-1] < 10 nM

---

Biological target: HCV NS3/4A 1b protease R155K (Hepatitis C virus genotype 1b, UniProt Q9WMX2, R1181K)
Construct: 10× stocks of NS3/4A protease enzyme from Bioenza (Mountain View, Calif.); purchased Bioenza (Mountain View, Calif.)
Test: HCV protease FRET assay (IC50_APP), Example 16
Format: biochemical
Conditions: reaction started immediately after enzyme addition, read-out: Inhibition (apparent IC50, IC50_APP), HCV R155K
Experimental: The following protocol was used to generate “apparent” IC50 (IC50 APP) values as depicted in Table 6, below. […] Protease reactions were immediately started after enzyme addition with the addition of 45 μL of the FRET substrate and monitored for 60-90 minutes at λex485/λem520 in a Synergy^4 plate reader from BioTek (Winooski, Vt.). […]
For each entry below, report its IC50 value.

Query the reported IC50 for HCV NS3/4A 1b protease R155K (Hepatitis C virus genotype 1b, UniProt Q9WMX2, R1181K); item: C=C(C)C(=O)C[C@H](NC(=O)OC(C)(C)C)C(=O)N1CC(OC(=O)N2Cc3cccc(F)c3C2)C[C@H]1C(=O)N[C@]1(C(=O)NS(=O)(=O)C2CC2)C[C@H]1CC (stereo partly shown) [Compound I-69] < 10 nM

Value wanted: IC50 (HCV NS3/4A 1b protease R155K (Hepatitis C virus genotype 1b, UniProt Q9WMX2, R1181K)) of entry CC[C@@H]1C[C@]1(NC(=O)[C@@H]1CC(OC(=O)N2Cc3cccc(F)c3C2)CN1C(=O)[C@H](CCC(=O)C=C(C)C)NC(=O)OC(C)(C)C)C(=O)NS(=O)(=O)C1CC1 (stereo partly shown) [Compound I-33] 100 to 1000 nM

Please state recorded IC50 (tested on HCV NS3/4A 1b protease R155K (Hepatitis C virus genotype 1b, UniProt Q9WMX2, R1181K)) of C=C[C@@H]1C[C@]1(NC(=O)[C@@H]1CC(OC(=O)N2Cc3cccc(F)c3C2)CN1C(=O)[C@H](CC(=O)C=C(C)C)NC(=O)OC(C)(C)C)C(=O)NS(=O)(=O)C1CC1 (stereo partly shown) [Compound I-32] 10 to 100 nM

Request: IC50, test system HCV NS3/4A 1b protease R155K (Hepatitis C virus genotype 1b, UniProt Q9WMX2, R1181K), entry CC(C)(C)OC(=O)N[C@H]1CN(C(=O)CCl)CCC/C=C\[C@@H]2C[C@@]2(C(=O)NS(=O)(=O)C2CC2)NC(=O)[C@@H]2CC(OC(=O)N3Cc4cccc(F)c4C3)CN2C1=O (stereo partly shown) [Compound I-47] 10 to 100 nM

Requested read-out IC50, target or system HCV NS3/4A 1b protease R155K (Hepatitis C virus genotype 1b, UniProt Q9WMX2, R1181K), entry C=C[C@@H]1C[C@]1(NC(=O)[C@@H]1CC(OC(=O)N2Cc3cccc(F)c3C2)CN1C(=O)[C@H](CCC(=O)C#CC(C)(C)C)NC(=O)OC(C)(C)C)C(=O)NS(=O)(=O)C1CC1 (stereo partly shown) [Compound I-29] < 10 nM

Request - read-out IC50 | tested on HCV NS3/4A 1b protease R155K (Hepatitis C virus genotype 1b, UniProt Q9WMX2, R1181K) | compound C=CC(=O)N1CC(C(NC(C)=O)C(=O)N2CC(OC(=O)N3Cc4cccc(F)c4C3)C[C@H]2C(=O)N[C@]2(C(=O)NS(=O)(=O)C3CC3)C[C@H]2C=C)C1 (stereo partly shown) [Compound I-46] < 10 nM

Test system HCV NS3/4A 1b protease R155K (Hepatitis C virus genotype 1b, UniProt Q9WMX2, R1181K); read-out IC50; what value for C=CC(=O)N1CC/C=C\[C@@H]2C[C@@]2(C(=O)NS(=O)(=O)C2CC2)NC(=O)[C@@H]2CC(OC(=O)N3Cc4cccc(F)c4C3)CN2C(=O)[C@@H](NC(=O)OC(C)(C)C)CC1 (stereo partly shown) [Compound I-36] ? < 10 nM

# get_value(readout= IC50, system= HCV NS3/4A 1b protease R155K (Hepatitis C virus genotype 1b, UniProt Q9WMX2, R1181K)) for C=C[C@@H]1C[C@]1(NC(=O)[C@@H]1CC(OC(=O)N2Cc3cccc(F)c3C2)CN1C(=O)[C@H](CC(=O)C(=C)C)NC(=O)OC(C)(C)C)C(=O)NS(=O)(=O)C1CC1 (stereo partly shown) [Compound I-68] < 10 nM

Item: C=C[C@@H]1C[C@]1(NC(=O)[C@@H]1C[C@@H](OC(=O)N2Cc3cccc(F)c3C2)CN1C(=O)[C@@H](NC(=O)OC(C)(C)C)[C@@H](C)OC(=O)/C=C/C)C(=O)NS(=O)(=O)C1CC1 [Compound I-22] Test system: HCV NS3/4A 1b protease R155K (Hepatitis C virus genotype 1b, UniProt Q9WMX2, R1181K) Read-out: IC50 Value: ? 10 to 100 nM

Recorded IC50 for C=C[C@@H]1C[C@]1(NC(=O)[C@@H]1C[C@@H](OC(=O)N2Cc3cccc(F)c3C2)CN1C(=O)[C@H](COC(=O)/C=C/C=C/C)NC(=O)OC(C)(C)C)C(=O)NS(=O)(=O)C1CC1 [Compound I-67] with HCV NS3/4A 1b protease R155K (Hepatitis C virus genotype 1b, UniProt Q9WMX2, R1181K), please? 100 to 1000 nM

---

Tested on: HCV RNA replicon in cell line ET (luc-ubi-neo/ET), human Huh7 hepatoma
Experiment: Replicon luciferase assay, Example 26
Assay type: cell-based
Conditions: Hepatitis C virus, Huh-7, assay of Example 26, 72 hr, read-out: Inhibition, Replicon, EC50 value
For each record, write down the corresponding EC50.

Look at this molecule and give its reported EC50. CC(C)(C)OC(=O)N[C@H]1CCN(S(=O)(=O)c2ccccc2[N+](=O)[O-])CC/C=C\[C@@H]2C[C@@]2(C(=O)NS(=O)(=O)C2CC2)NC(=O)[C@@H]2CC(OC(=O)N3Cc4cccc(F)c4C3)CN2C1=O (stereo partly drawn) [Compound I-53] 10 to 100 nM

Request the reported EC50 associated with C=C[C@@H]1C[C@]1(NC(=O)[C@@H]1CC(OC(=O)N2Cc3cccc(F)c3C2)CN1C(=O)[C@H](CCC(=O)/C=C\C(C)(C)C)NC(=O)OC(C)(C)C)C(=O)NS(=O)(=O)C1CC1 (stereo partly drawn) [Compound I-71] < 10 nM

Which EC50 value belongs to C=CC(=O)N1CC(C(NC(=O)OC2CCCC2)C(=O)N2CC(OC(=O)N3Cc4cccc(F)c4C3)C[C@H]2C(=O)N[C@]2(C(=O)NS(=O)(=O)C3CC3)C[C@H]2C=C)C1 (stereo partly drawn) [Compound I-51] ? 100 to 1000 nM

Which EC50 reading was recorded for the molecule CC[C@@H]1C[C@]1(NC(=O)[C@@H]1C[C@@H]2CN1C(=O)[C@H](CCC(=O)C=C(C)C)NC(=O)OCC(C)(C)CC/C=C/c1cccc3c1CN(C3)C(=O)O2)C(=O)NS(=O)(=O)C1CC1 [Compound I-56] ? < 10 nM

Which EC50 value belongs to C=CC(=O)N1CC(C(NC(C)=O)C(=O)N2CC(OC(=O)N3Cc4cccc(F)c4C3)C[C@H]2C(=O)N[C@]2(C(=O)NS(=O)(=O)C3CC3)C[C@H]2C=C)C1 (stereo partly drawn) [Compound I-46] ? 1000 to 10000 nM

Entry under review: CC(C)(C)OC(=O)N[C@H]1CN(C(=O)CCl)CCC/C=C\[C@@H]2C[C@@]2(C(=O)NS(=O)(=O)C2CC2)NC(=O)[C@@H]2CC(OC(=O)N3Cc4cccc(F)c4C3)CN2C1=O (stereo partly drawn) [Compound I-47] . Reported EC50? 10 to 100 nM
